Biological target: Sodium/glucose cotransporter 2 (Homo sapiens, UniProt P31639)
Sequence (P31639 whole entry): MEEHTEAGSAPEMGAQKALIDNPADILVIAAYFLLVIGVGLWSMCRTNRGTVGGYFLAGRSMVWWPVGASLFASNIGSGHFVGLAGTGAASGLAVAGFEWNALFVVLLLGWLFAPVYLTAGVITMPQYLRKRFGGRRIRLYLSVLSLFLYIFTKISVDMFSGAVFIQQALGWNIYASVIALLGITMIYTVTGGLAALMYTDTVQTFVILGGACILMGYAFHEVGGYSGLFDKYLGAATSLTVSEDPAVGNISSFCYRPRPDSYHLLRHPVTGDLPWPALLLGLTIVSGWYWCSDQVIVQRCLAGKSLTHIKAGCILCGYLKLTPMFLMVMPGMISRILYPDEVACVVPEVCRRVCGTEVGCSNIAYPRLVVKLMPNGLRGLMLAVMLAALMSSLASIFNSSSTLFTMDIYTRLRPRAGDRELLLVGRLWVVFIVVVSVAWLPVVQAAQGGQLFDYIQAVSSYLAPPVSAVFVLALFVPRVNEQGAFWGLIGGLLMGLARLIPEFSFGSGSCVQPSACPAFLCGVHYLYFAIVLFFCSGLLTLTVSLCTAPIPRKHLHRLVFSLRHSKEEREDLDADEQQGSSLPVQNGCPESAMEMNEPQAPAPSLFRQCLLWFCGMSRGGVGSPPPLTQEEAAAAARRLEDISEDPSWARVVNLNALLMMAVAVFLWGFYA
Experiment: Inhibition of human SGLT2
MEASURE: EC50 (nM)

                                     smiles                             tested_system  unit_name  assay_value
0  ONC[C@H]1C[C@@H](n2cc(Cc3ccc(C4CC4)cc3)c3c(Cl)cccc32)[C@H](O)[C@@H](O)[C@@H]1O  Sodium/glucose cotransporter 2 (Homo sapiens, UniProt P31639)         nM           33

###

Molecular target: Tyrosine-protein phosphatase non-receptor type 1 (Homo sapiens)
Sequence (P18031 whole entry): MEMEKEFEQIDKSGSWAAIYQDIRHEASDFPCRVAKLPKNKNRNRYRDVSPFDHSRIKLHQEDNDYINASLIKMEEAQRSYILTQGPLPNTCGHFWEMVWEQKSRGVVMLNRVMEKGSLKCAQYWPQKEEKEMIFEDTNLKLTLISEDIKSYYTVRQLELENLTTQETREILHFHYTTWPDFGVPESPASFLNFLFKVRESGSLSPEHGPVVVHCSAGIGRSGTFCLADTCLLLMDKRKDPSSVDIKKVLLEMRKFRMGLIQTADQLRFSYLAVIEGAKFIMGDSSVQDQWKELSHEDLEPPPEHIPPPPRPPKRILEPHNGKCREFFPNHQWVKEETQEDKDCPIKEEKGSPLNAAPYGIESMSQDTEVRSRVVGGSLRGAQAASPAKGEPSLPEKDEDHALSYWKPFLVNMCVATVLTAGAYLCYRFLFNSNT
Assay: Inhibition of PTP1B (unknown origin) using p-NPP as substrate after 0.5 hrs
pIC50: −log10 of the molar value.
MEASURE: pIC50

>>> df
                                     smiles                             tested_system  measure  assay_value
0  CCOS(=O)(=O)/C=C/c1ccc(COc2cc(COc3ccc(C(=O)O)c(O)c3)ccc2C(=O)Nc2ccc(Oc3ccc(-c4ccccc4)cc3)cc2)cc1  Tyrosine-protein phosphatase non-receptor type 1 (Homo sapiens)    pIC50         7.15
